Sourced from ChEMBL document CHEMBL1158596

Experiment: Intrinsic clearance in human liver microsome
Assay type: ADME
Conditions: liver microsomes
Recorded CLint scaled by entry

{"smiles-entry": "COc1ccc(-c2ccccn2)c2cc(C(=O)Nc3ccncc3)oc12", "CLint scaled": "37.2 mL/min/kg"}
{"smiles-entry": "COc1ccc(-c2cnccn2)c2cc(C(=O)Nc3ccc(Cn4ccnc4)cc3)oc12", "CLint scaled": "< 7.83 mL/min/kg"}
{"smiles-entry": "COc1ccc(-c2ccncc2)c2cc(C(=O)Nc3ccncc3)oc12", "CLint scaled": "32.8 mL/min/kg"}
{"smiles-entry": "COc1ccc(-c2cnccn2)c2cc(C(=O)Nc3ccncc3)oc12", "CLint scaled": "154 mL/min/kg"}
{"smiles-entry": "COc1ccc(-c2cccnc2)c2cc(C(=O)Nc3ccc(Cn4ccnc4)cc3)oc12", "CLint scaled": "53 mL/min/kg"}

----------
Assay: Intrinsic clearance in marmoset liver microsome […]
Assay type: ADME, Callithrix jacchus
Settings: liver microsomes

{"smiles-entry": "COc1ccc(N2CCOCC2)c2cc(C(=O)Nc3ccc(Cn4ccnc4)cc3)oc12", "lt-gt-eq": "=", "CLint scaled, mL/min/kg": 133}
{"smiles-entry": "COc1ccc(N2CCOCC2)c2cc(C(=O)Nc3ccncc3)oc12", "lt-gt-eq": "<", "CLint scaled, mL/min/kg": 7.17}
{"smiles-entry": "CNC(=O)c1cc2c(N3CCOCC3)ccc(OC)c2o1", "lt-gt-eq": "=", "CLint scaled, mL/min/kg": 21.7}

----------
Documented inhibition across a set of compounds
Molecular target: Adenosine receptor A2a (Homo sapiens)
Test: Displacement of [3H]CGS21680 from human adenosine A2A receptor at 0.1 umol/L by scintillation counting

{"smiles-entry": "COc1ccc(N2CCOCC2)c2cc(C(=O)Nc3ccncc3)oc12", "target-entity": "Adenosine receptor A2a (Homo sapiens)", "unit-of-measurement": "%", "inhibition": 73}
{"smiles-entry": "COc1ccc(-c2cccnc2)c2cc(C(=O)Nc3ccncc3)oc12", "target-entity": "Adenosine receptor A2a (Homo sapiens)", "unit-of-measurement": "%", "inhibition": 67}
{"smiles-entry": "COc1ccc(-c2cnccn2)c2cc(C(=O)Nc3ccncc3)oc12", "target-entity": "Adenosine receptor A2a (Homo sapiens)", "unit-of-measurement": "%", "inhibition": 22}
{"smiles-entry": "COc1ccc(-c2ccncc2)c2cc(C(=O)Nc3ccc(Cn4ccnc4)cc3)oc12", "target-entity": "Adenosine receptor A2a (Homo sapiens)", "unit-of-measurement": "%", "inhibition": 90}
{"smiles-entry": "COc1ccc(-c2ccccc2)c2cc(C(=O)Nc3ccncc3)oc12", "target-entity": "Adenosine receptor A2a (Homo sapiens)", "unit-of-measurement": "%", "inhibition": 87}
{"smiles-entry": "COc1ccc(-c2ccccn2)c2cc(C(=O)Nc3ccncc3)oc12", "target-entity": "Adenosine receptor A2a (Homo sapiens)", "unit-of-measurement": "%", "inhibition": 27}
{"smiles-entry": "COc1ccc(-c2cnccn2)c2cc(C(=O)Nc3ccc(Cn4ccnc4)cc3)oc12", "target-entity": "Adenosine receptor A2a (Homo sapiens)", "unit-of-measurement": "%", "inhibition": 44}
{"smiles-entry": "COc1ccc(N2CCOCC2)c2cc(C(=O)Nc3ccc(Cn4ccnc4)cc3)oc12", "target-entity": "Adenosine receptor A2a (Homo sapiens)", "unit-of-measurement": "%", "inhibition": 89}
{"smiles-entry": "COc1c(N2CCOCC2)ccc2cc(C(=O)Nc3ccncc3)oc12", "target-entity": "Adenosine receptor A2a (Homo sapiens)", "unit-of-measurement": "%", "inhibition": -5}
{"smiles-entry": "CCNC(=O)c1cc2c(N3CCOCC3)ccc(OC)c2o1", "target-entity": "Adenosine receptor A2a (Homo sapiens)", "unit-of-measurement": "%", "inhibition": 87}
{"smiles-entry": "COc1ccc(-c2ccncc2)c2cc(C(=O)Nc3ccncc3)oc12", "target-entity": "Adenosine receptor A2a (Homo sapiens)", "unit-of-measurement": "%", "inhibition": 72}
{"smiles-entry": "COc1ccc(N2CCOCC2)c2cc(C(=O)Nc3ccc(CN4CCC(O)CC4)cc3)oc12", "target-entity": "Adenosine receptor A2a (Homo sapiens)", "unit-of-measurement": "%", "inhibition": 74}
{"smiles-entry": "COc1ccc(N2CCOCC2)c2cc(C(=O)NC3CCN(c4ncccn4)CC3)oc12", "target-entity": "Adenosine receptor A2a (Homo sapiens)", "unit-of-measurement": "%", "inhibition": 26}
{"smiles-entry": "CNC(=O)c1cc2c(N3CCOCC3)ccc(OC)c2o1", "target-entity": "Adenosine receptor A2a (Homo sapiens)", "unit-of-measurement": "%", "inhibition": 58}
{"smiles-entry": "COc1ccc(N2CCOCC2)c2oc(C(=O)Nc3ccncc3)cc12", "target-entity": "Adenosine receptor A2a (Homo sapiens)", "unit-of-measurement": "%", "inhibition": 77}
{"smiles-entry": "COc1ccc(-c2cccnc2)c2cc(C(=O)Nc3ccc(Cn4ccnc4)cc3)oc12", "target-entity": "Adenosine receptor A2a (Homo sapiens)", "unit-of-measurement": "%", "inhibition": 83}

----------
In this section we review reported CLint scaled values for a set of compounds.
Experiment: Intrinsic clearance in human liver microsome
Assay type: ADME
Conditions: liver microsomes
measured-quantity: CLint scaled (mL/min/kg)

{"smiles-entry": "COc1ccc(-c2ccccc2)c2cc(C(=O)Nc3ccncc3)oc12", "observed": 580}
{"smiles-entry": "COc1ccc(-c2cccnc2)c2cc(C(=O)Nc3ccncc3)oc12", "observed": 57}
{"smiles-entry": "COc1ccc(-c2ccncc2)c2cc(C(=O)Nc3ccc(Cn4ccnc4)cc3)oc12", "observed": 40.7}

----------
Quick reference for inhibition among some compounds
Target: Adenosine receptor A2a (Homo sapiens)
Assay: Displacement of [3H]CGS21680 from human adenosine A2A receptor at 0.01 umol/L by scintillation counting

{"smiles-entry": "COc1ccc(-c2ccncc2)c2cc(C(=O)Nc3ccc(Cn4ccnc4)cc3)oc12", "target-entity": "Adenosine receptor A2a (Homo sapiens)", "inhibition (%)": 56}
{"smiles-entry": "COc1ccc(N2CCOCC2)c2cc(C(=O)Nc3ccc(Cn4ccnc4)cc3)oc12", "target-entity": "Adenosine receptor A2a (Homo sapiens)", "inhibition (%)": 50}
{"smiles-entry": "COc1ccc(N2CCOCC2)c2cc(C(=O)Nc3ccncc3)oc12", "target-entity": "Adenosine receptor A2a (Homo sapiens)", "inhibition (%)": 30}
{"smiles-entry": "COc1ccc(-c2cnccn2)c2cc(C(=O)Nc3ccncc3)oc12", "target-entity": "Adenosine receptor A2a (Homo sapiens)", "inhibition (%)": 24}
{"smiles-entry": "COc1ccc(-c2cccnc2)c2cc(C(=O)Nc3ccncc3)oc12", "target-entity": "Adenosine receptor A2a (Homo sapiens)", "inhibition (%)": 27}
{"smiles-entry": "COc1ccc(-c2ccccc2)c2cc(C(=O)Nc3ccncc3)oc12", "target-entity": "Adenosine receptor A2a (Homo sapiens)", "inhibition (%)": 29}
{"smiles-entry": "COc1ccc(-c2cnccn2)c2cc(C(=O)Nc3ccc(Cn4ccnc4)cc3)oc12", "target-entity": "Adenosine receptor A2a (Homo sapiens)", "inhibition (%)": 20}
{"smiles-entry": "CCNC(=O)c1cc2c(N3CCOCC3)ccc(OC)c2o1", "target-entity": "Adenosine receptor A2a (Homo sapiens)", "inhibition (%)": 37}
{"smiles-entry": "COc1ccc(-c2cccnc2)c2cc(C(=O)Nc3ccc(Cn4ccnc4)cc3)oc12", "target-entity": "Adenosine receptor A2a (Homo sapiens)", "inhibition (%)": 46}
{"smiles-entry": "COc1ccc(-c2ccccn2)c2cc(C(=O)Nc3ccncc3)oc12", "target-entity": "Adenosine receptor A2a (Homo sapiens)", "inhibition (%)": 4}
